Sourced from the supplement of paper PMC10567573

Catalogue of protein stability index values
B1: DLC1 (parent)
chain: RDAIEALCRRLNTLNKCAVMKLEI

variants of: B1; assay: protein stability index of a GFP-peptide fusion (GPS, HEK-293T) (PSI 1-6); higher = more stable; details: c terminus: a fixed tail appended;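 further: lentivirally expressed fusions sorted by FACS into six bins by GFP to DsRed ratio, PSI derived from sequencing read proportions per bin multiplied by bin number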
Please give only the number in your answer, with no unit.

Some solved cases for reference:
Mutation label: R1L
Reported metric: protein stability index
Reported measurement: 2.02

Mutation label: C8P
Reported metric: protein stability index
Reported measurement: 2.04

Mutation label: M20P
Reported metric: protein stability index
Reported measurement: 2.02

Mutation label: D2I
Reported metric: protein stability index
Reported measurement: 2.03

Now examine the next entry.
Give protein stability index for the following variant: `A18Q`
2.02
